Measured values drawn from ChEMBL document CHEMBL1221274 for this set.

# system: PXR (nuclear receptor subfamily 1 group I member 2) (Homo sapiens, UniProt O75469)
# Sequence (O75469 whole entry): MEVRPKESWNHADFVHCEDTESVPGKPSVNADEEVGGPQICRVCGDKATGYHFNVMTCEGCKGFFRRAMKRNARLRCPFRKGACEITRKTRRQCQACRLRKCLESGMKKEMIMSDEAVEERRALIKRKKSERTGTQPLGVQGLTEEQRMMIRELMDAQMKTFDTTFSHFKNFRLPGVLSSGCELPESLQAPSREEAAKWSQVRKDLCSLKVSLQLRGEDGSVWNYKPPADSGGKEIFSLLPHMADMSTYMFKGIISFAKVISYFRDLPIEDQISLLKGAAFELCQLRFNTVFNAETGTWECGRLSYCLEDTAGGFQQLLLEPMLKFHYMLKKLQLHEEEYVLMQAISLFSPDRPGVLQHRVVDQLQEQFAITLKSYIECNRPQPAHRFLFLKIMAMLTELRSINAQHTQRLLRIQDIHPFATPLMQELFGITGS
# test.name: PXR activation relative to rifampicin at 10 uM
# condition.details: activation
Param threshold (60%) applies to activation at 10 µM; output 1 when value >= threshold, -1 when value < threshold.

O=C1Nc2ccc(F)c(F)c2C(CC(F)F)(c2ccc(F)cc2)N1CC(F)(F)F (stereo not given): -1
CCC1(c2ccccc2)c2c(F)ccc(F)c2NC(=O)N1CC(F)(F)F (stereo not given): 1
CCC1(c2ccccc2)c2c(F)cccc2NC(=O)N1CC(F)(F)F (stereo not given): 1
CCC1(c2ccc(F)cc2)c2c(ccc(F)c2F)NC(=O)N1CC(F)(F)F (stereo not given): -1
CCC1(c2ccc(F)cc2)c2cc(F)ccc2NC(=O)N1CC(F)(F)F (stereo not given): -1
CC(C)(C)C1(c2ccccc2)c2cc(F)ccc2NC(=O)N1CC(F)(F)F (stereo not given): -1
O=C1Nc2ccc(F)c(F)c2C(CCF)(c2ccc(F)cc2)N1CC(F)(F)F (stereo not given): -1
CCC1(c2ccc(F)cc2)c2c(ccc(F)c2F)N(CCOC)C(=O)N1CC(F)(F)F (stereo not given): 1

Below: the item to evaluate.
Exam item: decide whether the reported activation at 10 µM for CCC1(c2ccccc2)c2c(ccc(F)c2F)NC(=O)N1CC(F)(F)F (single isomer, unassigned) is at least 60%.
-1

----------
# test.name: Volume of distribution at steady state in monkey
# Assay type: ADME, organism-based, Macaca mulatta
# condition.details: rhesus monkey, in vivo; read-out: Vdss
assay.readout: Vd (L/kg)
Give bare numbers, in L/kg.

Given item O=C1Nc2ccc(F)c(F)c2C(CC(F)F)(c2ccc(F)cc2)N1CC(F)(F)F (stereo unspecified) , the value recorded as its Vd is 9.8

----------
# test.name: Oral bioavailability in monkey
# Assay type: ADME, organism-based, Macaca mulatta
# condition.details: rhesus monkey, in vivo
assay.readout: bioavailability (%)
One number for each entry, in %.

Query O=C1Nc2ccc(F)c(F)c2C(CC(F)F)(c2ccc(F)cc2)N1CC(F)(F)F (stereo unspecified) yields bioavailability of 15

----------
# test.name: Half life in dog
# Format: ADME, organism-based, Canis lupus familiaris
# condition.details: in vivo
assay.readout: half-life
Please answer using a numeric value trailed by its unit.

Lab book: half-life of O=C1Nc2ccc(F)c(F)c2C(CC(F)F)(c2ccc(F)cc2)N1CC(F)(F)F (stereo unspecified) noted as 5.9 h

----------
# test.name: Half life in monkey
# Assay type: ADME, organism-based, Macaca mulatta
# condition.details: rhesus monkey, in vivo
assay.readout: half-life (h)
Answers are plain numbers, in h.

Note to self: half-life recorded for O=C1Nc2ccc(F)c(F)c2C(CC(F)F)(c2ccc(F)cc2)N1CC(F)(F)F (stereo unspecified) was 5.8

----------
# test.name: Half life in rat
# Format: ADME, organism-based
# condition.details: in vivo
assay.readout: half-life (h)
One number for each entry, in h.

Lab note: O=C1Nc2ccc(F)c(F)c2C(CC(F)F)(c2ccc(F)cc2)N1CC(F)(F)F (stereo unspecified) gave half-life of 1.6

----------
# test.name: Metabolic stability in human liver microsome assessed as compound remaining after 60 mins
# Type: ADME
# condition.details: liver microsomes, read-out: Stability
assay.readout: remaining at 1 h (%)
Give bare numbers, in %.

O=C1Nc2ccc(F)c(F)c2C(CC(F)F)(c2ccc(F)cc2)N1CC(F)(F)F (stereo not drawn): 68

Field: next compound
Noted for O=C1Nc2ccc(F)c(F)c2C(CCF)(c2ccc(F)cc2)N1CC(F)(F)F (stereo not drawn) : its remaining at 1 h reads 66
